Biological target: Muscarinic acetylcholine receptor M3 (Homo sapiens)
Sequence (P20309 whole entry): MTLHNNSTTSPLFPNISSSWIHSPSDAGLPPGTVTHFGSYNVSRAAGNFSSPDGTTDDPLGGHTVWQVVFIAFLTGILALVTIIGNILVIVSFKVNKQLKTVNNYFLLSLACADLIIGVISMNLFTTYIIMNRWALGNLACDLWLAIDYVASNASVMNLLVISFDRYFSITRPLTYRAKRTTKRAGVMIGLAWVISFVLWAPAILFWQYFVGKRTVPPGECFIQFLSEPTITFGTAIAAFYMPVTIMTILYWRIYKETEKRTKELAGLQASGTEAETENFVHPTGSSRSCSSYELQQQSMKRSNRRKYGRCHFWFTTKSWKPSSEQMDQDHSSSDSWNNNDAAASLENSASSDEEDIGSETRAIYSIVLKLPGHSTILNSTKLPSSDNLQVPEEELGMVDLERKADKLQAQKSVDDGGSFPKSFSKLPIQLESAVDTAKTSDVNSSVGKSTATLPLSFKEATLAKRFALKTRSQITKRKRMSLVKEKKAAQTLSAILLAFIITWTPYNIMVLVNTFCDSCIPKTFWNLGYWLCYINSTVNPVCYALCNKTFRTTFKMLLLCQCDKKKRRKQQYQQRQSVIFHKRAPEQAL
pKi: −log10 of the molar value.
recorded.endpoint: pKi

{"columns": ["line.notation", "pKi"],
 "data": [
  ["Cc1c(NC2CCCCC2)nc(C2CC2)nc1NC1CC1", 6.50],
  ["c1c(NC2CC2)nc(C2CC2)nc1N1CCCCCC1", 7.20],
  ["C[C@@H]1C[C@H]1c1nc(NC2CC2)cc(N2CCCCCC2)n1", 6.40],
  ["Fc1c(NC2CC2)nc(C2CC2)nc1N1CCCCCC1", 6.60],
  ["Cc1c(NC2CC2)nc(C2CC2)nc1N1CCC(C(F)(F)F)CC1", 7.00]
]}

1 = Cc1c(NCc2c(F)cccc2F)nc(C2CC2)nc1NC1CC1
2 = Cc1c(NC2CC2)nc(C2CC2)nc1N1CC2CCC(C2)C1
3 = COc1c(NC2CC2)nc(C2CC2)nc1N1CCSCC1
4 = Cc1c(NC2CC2)nc(C2CC2)nc1N1CCC2(CCCC2)CC1
5 = Cc1c(NC2CC2)nc(C2CC2)nc1N1CCCCC1
Query string: Ranking field: pKi; order: falling. Provide the labels, sequenced as the question asks.
Result string: 2, 5, 1, 4, 3

I = Cc1c(NC2CCC2)nc(C2CC2)nc1N1CCCCCC1
II = C1CCCN(c2nc(C3CC3)nc3c2CCCN3)CC1
Query string: In the pair I and II , the larger recorded pKi belongs to which? Lab log: write the label of the selected item as the result.
Result string: I

The reported measurements were obtained from ChEMBL document CHEMBL1146129.
